Measured values drawn from patent US11319298B2 for this set.

Molecular target: human M4 muscarinic acetylcholine receptor (Homo sapiens, UniProt P08173)
Sequence (P08173 whole entry): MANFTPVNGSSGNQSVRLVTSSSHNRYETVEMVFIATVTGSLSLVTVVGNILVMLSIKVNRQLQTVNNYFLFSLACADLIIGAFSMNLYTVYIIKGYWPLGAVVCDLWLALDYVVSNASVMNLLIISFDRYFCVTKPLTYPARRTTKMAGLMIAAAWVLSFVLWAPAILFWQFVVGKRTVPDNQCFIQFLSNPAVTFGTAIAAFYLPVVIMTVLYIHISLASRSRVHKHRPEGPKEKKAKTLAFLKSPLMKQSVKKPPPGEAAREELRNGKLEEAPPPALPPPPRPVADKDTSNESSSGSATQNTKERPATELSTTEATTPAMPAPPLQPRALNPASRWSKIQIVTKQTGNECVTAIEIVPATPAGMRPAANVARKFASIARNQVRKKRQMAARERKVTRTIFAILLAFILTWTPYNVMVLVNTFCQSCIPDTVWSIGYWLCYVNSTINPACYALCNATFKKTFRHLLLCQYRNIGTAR
Assay: human FLIPR-based M4 PAM assay, CHO-K1 cells stably transfected with human M4 receptor and chimeric G-protein Gαqi5
Details: inflection point (IP) of dose response curve; acetylcholine added at 20% of maximum response; CHO-K1 human M4/Gαqi5, FLIPR Tetra
pEC50: −log10 of the molar value.
REPORTED PROPERTY: pEC50

INSERT INTO assay_data (compound, experimental_system, observed_result) VALUES
  ('COc1ccc([C@@H](C)NC(=O)c2cc(C)c(N3CCC(Oc4ccc(OC)nc4)CC3)nn2)cc1', 'human M4 muscarinic acetylcholine receptor (Homo sapiens, UniProt P08173)', 5.82),
  ('COc1ccc(OC2CCN(c3nnc(C(=O)NCc4ccc(C#N)cc4)cc3C)CC2)cn1', 'human M4 muscarinic acetylcholine receptor (Homo sapiens, UniProt P08173)', 6.33),
  ('COc1ccc(OC2CCN(c3nnc(C(=O)N[C@H]4CCc5ncccc5C4)cc3C)CC2)cn1 [Example 141B]', 'human M4 muscarinic acetylcholine receptor (Homo sapiens, UniProt P08173)', 6.76),
  ('COc1ccc(OC2CCN(c3nnc(C(=O)NC4CCc5ccncc5C4)cc3C)CC2)cn1 (stereo not shown)', 'human M4 muscarinic acetylcholine receptor (Homo sapiens, UniProt P08173)', 6.53),
  ('COc1ccc(OC2CCN(c3nnc(C(=O)NCc4ccccc4OC)cc3C)CC2)cn1', 'human M4 muscarinic acetylcholine receptor (Homo sapiens, UniProt P08173)', 6.55),
  ('COc1ccc(OC2CCN(c3ncnc(N4CC5CC4CO5)c3C)CC2)cn1 (stereo not shown)', 'human M4 muscarinic acetylcholine receptor (Homo sapiens, UniProt P08173)', 5.51),
  ('COc1ccc(OC2CCN(c3nc(C(=O)NCc4ccncc4)nc(Cl)c3C)CC2)cn1', 'human M4 muscarinic acetylcholine receptor (Homo sapiens, UniProt P08173)', 6.65);

====

Biological target: human M4 muscarinic acetylcholine receptor (Homo sapiens, UniProt P08173)
Assay: human FLIPR-based M4 PAM assay, CHO-K1 cells stably transfected with human M4 receptor and chimeric G-protein Gαqi5
Conditions: inflection point (IP) of dose response curve; acetylcholine added at 20% of maximum response; CHO-K1 human M4/Gαqi5, FLIPR Tetra
Protocol: In a typical experiment the M4 muscarinic acetylcholine receptor modulating activity of the compounds of the present invention was determined in accordance with the following experimental method. […] Following dye loading the cell plates are placed in a FLIPR Tetra instrument and while monitoring dye fluorescence (excitation […]), 10 uL of test substance at increasing concentrations is added, and fluorescence values are recorded for 4 min. […]
pEC50: −log10 of the molar value.
Entries and their pEC50 values follow.
REPORTED PROPERTY: pEC50

INSERT INTO measurements (molecule, observed_result) VALUES
  ('COC(=O)c1cc(C)c(N2CCC(Oc3ccc(OC)cc3)CC2)nn1', 7.09),
  ('Cc1c(-c2ccc(F)cc2)ncnc1N1CCC(Oc2cccc(C#N)c2)CC1', 5.61),
  ('COc1ccc(OC2CCN(c3nc(S(C)(=O)=O)nc(Cl)c3C)CC2)cn1', 6.64),
  ('Cc1c(Cl)nc(CO)nc1N1CCC(Oc2ccc3c(cnn3C)c2)CC1', 6.80),
  ('Cc1cc(C(=O)NC2CCc3cccnc3C2)nnc1N1CCC(OCC2CC2)CC1 (stereo not drawn)', 6.71),
  ('Cc1nc2ccc(OC3CCN(c4nnc(C(=O)NC5C6CC5C6)cc4C)CC3)cc2o1 (stereo not drawn)', 6.66),
  ('Cc1cc(C(=O)NCc2ccncc2)nnc1N1CCC(Oc2cnn(CC3CC3)c2)CC1', 6.56),
  ('COc1ccc(OC2CCN(c3nc(C(=O)N[C@H]4CCCc5ccccc54)nc(Cl)c3C)CC2)cn1', 5.31),
  ('COc1ccc(OC2CCN(c3nc(C(=O)NCc4ccncc4Cl)nc(Cl)c3C)CC2)cn1', 6.20),
  ('Cc1c(Cl)nc(CO)nc1N1CCC(Oc2ccc3nn(C)cc3c2)CC1', 7.00),
  ('COc1ccc(OC2CCN(c3nnc(C(=O)NC4CCc5cccnc5C4)cc3C)CC2)cn1 (stereo not drawn)', 6.76),
  ('Cc1c(Cl)nc(CO)nc1N1CCC(Oc2ccc3c(c2)CCCN3)CC1', 7.48),
  ('Cc1c(Cl)nc(CO)nc1N1CCC(Oc2ccc3c(c2)C(=O)N(C)CC3)CC1', 6.49),
  ('Cc1c(Cl)nc(CO)nc1N1CCC(Oc2ccc3ccc(=O)oc3c2)CC1', 6.37),
  ('COc1ccc(OC2CCN(c3nc(C(=O)NC4CCc5ccncc5C4)nc(Cl)c3C)CC2)cn1 (stereo not drawn)', 6.00),
  ('Cc1cc(C(=O)NCc2ccncc2)nnc1N1CCC(Oc2ccc3[nH]ncc3c2)CC1', 7.40),
  ('Cc1cncc(-c2ncnc(N3CCC(Oc4cccc(C#N)c4)CC3)c2C)c1', 5.95),
  ('COC(=O)c1cc(C)c(N2CCC(Oc3ccc(OC)nc3)CC2)nc1F', 6.42);
